Recorded values, source ChEMBL document CHEMBL1759836.

# System: Mycobacterium tuberculosis
# assay: Antimicrobial activity against multidrug-resisntat Mycobacterium tuberculosis by agar dilution method
# Assay type: functional
assay.readout: MIC (µM)
Number in µM, nothing else.

Bench note, Mycobacterium tuberculosis: entry CC1(C)CC(=O)C2=C(C1)N(NC(=O)c1ccncc1)C1=C(C(=O)CC(C)(C)C1)C2c1ccc(F)cc1 , its MIC = 0.2

Assay Mycobacterium tuberculosis, sample CC1(C)CC(=O)C2=C(C1)N(NC(=O)c1ccncc1)C1=C(C(=O)CC(C)(C)C1)C2c1ccccc1C(F)(F)F , MIC read: 1.45

Assay Mycobacterium tuberculosis, sample CC1(C)CC(=O)C2=C(C1)N(NC(=O)c1ccncc1)C1=C(C(=O)CC(C)(C)C1)C2c1ccc([N+](=O)[O-])cc1 , MIC read: 3.03

# MIC measured on Mycobacterium tuberculosis for item CC1(C)CC(=O)C2=C(C1)N(NC(=O)c1ccncc1)C1=C(C(=O)CC(C)(C)C1)C2c1ccc(OCc2ccccc2)cc1 = 0.69

The reported Mycobacterium tuberculosis MIC of CC1(C)CC(=O)C2=C(C1)N(NC(=O)c1ccncc1)C1=C(C(=O)CC(C)(C)C1)C2c1cccc([N+](=O)[O-])c1 is 3.03

The compound CC1(C)CC(=O)C2=C(C1)N(NC(=O)c1ccncc1)C1=C(C(=O)CC(C)(C)C1)C2c1ccccc1[N+](=O)[O-] , when measured on Mycobacterium tuberculosis, yielded MIC of 1.51

Summary line: CC1(C)CC(=O)C2=C(C1)N(NC(=O)c1ccncc1)C1=C(C(=O)CC(C)(C)C1)C2c1ccc(Cl)cc1 , Mycobacterium tuberculosis, reported MIC = 1.54

For the compound CC1(C)CC(=O)C2=C(C1)N(NC(=O)c1ccncc1)C1=C(C(=O)CC(C)(C)C1)C2c1ccc(Br)cc1 , the measured MIC on Mycobacterium tuberculosis was 2.84

Bench note, Mycobacterium tuberculosis: entry CC1(C)CC(=O)C2=C(C1)N(NC(=O)c1ccncc1)C1=C(C(=O)CC(C)(C)C1)C2c1cccc(OCc2ccccc2)c1 , its MIC = 1.35

Item: CC1(C)CC(=O)C2=C(C1)N(NC(=O)c1ccncc1)C1=C(C(=O)CC(C)(C)C1)C2c1ccccc1F | System: Mycobacterium tuberculosis | MIC: 1.59

Reported Mycobacterium tuberculosis MIC for item CC1(C)CC(=O)C2=C(C1)N(NC(=O)c1ccncc1)C1=C(C(=O)CC(C)(C)C1)C2c1cccc(F)c1 was 0.82

Entry CC1(C)CC(=O)C2=C(C1)N(NC(=O)c1ccncc1)C1=C(C(=O)CC(C)(C)C1)C2c1ccccc1OCc1ccccc1 : MIC on Mycobacterium tuberculosis = 0.69

Observed MIC, Mycobacterium tuberculosis, CC1(C)CC(=O)C2=C(C1)N(NC(=O)c1ccncc1)C1=C(C(=O)CC(C)(C)C1)C2c1ccccc1Br : 2.84

Item NNC(=O)c1ccncc1 ; assay system Mycobacterium tuberculosis; MIC reported as 45.6

Bench note, Mycobacterium tuberculosis: CC1(C)CC(=O)C2=C(C1)N(NC(=O)c1ccncc1)C1=C(C(=O)CC(C)(C)C1)C2c1cccc(C(F)(F)F)c1 , MIC reads 1.45

Entry CC1(C)CC(=O)C2=C(C1)N(NC(=O)c1ccncc1)C1=C(C(=O)CC(C)(C)C1)C2c1cccc(Br)c1 , Mycobacterium tuberculosis data, MIC value: 2.84

// compound CC1(C)CC(=O)C2=C(C1)N(NC(=O)c1ccncc1)C1=C(C(=O)CC(C)(C)C1)C2c1ccc(C(F)(F)F)cc1 , assay Mycobacterium tuberculosis, MIC value: 0.74

----------
# assay: Cytotoxicity against african green monkey Vero cells after 72 hrs by MTT assay
# Assay type: cell-based
# measurement.parameters: chlorocebus sabaeus
So I've got a bunch of compounds here, and I need their CC50 at 72 h values.

// CC50 at 72 h value for CC1(C)CC(=O)C2=C(C1)N(NC(=O)c1ccncc1)C1=C(C(=O)CC(C)(C)C1)C2c1ccc(Br)cc1 : < 114 µM

Value of measured CC50 at 72 h for the entry CC1(C)CC(=O)C2=C(C1)N(NC(=O)c1ccncc1)C1=C(C(=O)CC(C)(C)C1)C2c1ccccc1Br : > 114 µM

Data point: NNC(=O)c1ccncc1 [ISONIAZID] ; CC50 at 72 h = > 456 µM

Reported CC50 at 72 h of CC1(C)CC(=O)C2=C(C1)N(NC(=O)c1ccncc1)C1=C(C(=O)CC(C)(C)C1)C2c1cccc([N+](=O)[O-])c1 : < 121 µM

Entry under test: CC1(C)CC(=O)C2=C(C1)N(NC(=O)c1ccncc1)C1=C(C(=O)CC(C)(C)C1)C2c1ccc(F)cc1 . Its CC50 at 72 h was > 128 µM

Note to self: CC50 at 72 h recorded for CC1(C)CC(=O)C2=C(C1)N(NC(=O)c1ccncc1)C1=C(C(=O)CC(C)(C)C1)C2c1ccccc1[N+](=O)[O-] was < 121 µM

According to the records, this compound CC1(C)CC(=O)C2=C(C1)N(NC(=O)c1ccncc1)C1=C(C(=O)CC(C)(C)C1)C2c1ccc(C(F)(F)F)cc1 displays CC50 at 72 h of > 116 µM

Entry under test: CC1(C)CC(=O)C2=C(C1)N(NC(=O)c1ccncc1)C1=C(C(=O)CC(C)(C)C1)C2c1ccccc1C(F)(F)F . Its CC50 at 72 h was > 116 µM

----------
# assay: Cytotoxicity against african green monkey Vero cells after 72 hrs by MTT assay
# Format: cell-based
# measurement.parameters: chlorocebus sabaeus
assay.readout: CC50 at 72 h

Noted for CC1(C)CC(=O)C2=C(C1)N(NC(=O)c1ccncc1)C1=C(C(=O)CC(C)(C)C1)C2c1cccc(F)c1 : its CC50 at 72 h reads > 128 µM

Looking up CC1(C)CC(=O)C2=C(C1)N(NC(=O)c1ccncc1)C1=C(C(=O)CC(C)(C)C1)C2c1cccc(C(F)(F)F)c1 , I see its CC50 at 72 h listed as > 116 µM

CC1(C)CC(=O)C2=C(C1)N(NC(=O)c1ccncc1)C1=C(C(=O)CC(C)(C)C1)C2c1ccc(Cl)cc1 yielded CC50 at 72 h of > 124 µM

The value of CC50 at 72 h measured for the compound CC1(C)CC(=O)C2=C(C1)N(NC(=O)c1ccncc1)C1=C(C(=O)CC(C)(C)C1)C2c1cccc(Br)c1 turned out to be < 114 µM

The compound CC1(C)CC(=O)C2=C(C1)N(NC(=O)c1ccncc1)C1=C(C(=O)CC(C)(C)C1)C2c1ccc([N+](=O)[O-])cc1 showed CC50 at 72 h equal to < 121 µM

----------
# assay: Cytotoxicity against african green monkey Vero cells after 72 hrs by MTT assay
# Format: cell-based
# measurement.parameters: chlorocebus sabaeus
assay.readout: CC50 at 72 h

Note to self: CC50 at 72 h recorded for CC1(C)CC(=O)C2=C(C1)N(NC(=O)c1ccncc1)C1=C(C(=O)CC(C)(C)C1)C2c1ccc(OCc2ccccc2)cc1 was > 109 µM

Briefly, CC50 at 72 h measured for CC1(C)CC(=O)C2=C(C1)N(NC(=O)c1ccncc1)C1=C(C(=O)CC(C)(C)C1)C2c1ccccc1F : > 128 µM

Form field CC50 at 72 h, entry CC1(C)CC(=O)C2=C(C1)N(NC(=O)c1ccncc1)C1=C(C(=O)CC(C)(C)C1)C2c1ccccc1OCc1ccccc1 : > 109 µM

Item: CC1(C)CC(=O)C2=C(C1)N(NC(=O)c1ccncc1)C1=C(C(=O)CC(C)(C)C1)C2c1cccc(OCc2ccccc2)c1 | CC50 at 72 h: > 109 µM
